Numbers sourced from patent US9321773B2.

Assay: Stereochemical analysis by chiral stationary phase HPLC (atropisomerism)
Type: physicochemical
Conditions: chiral stationary phase HPLC (16 different conditions for the examples)
reportedEndpoint: atropisomerism by chiral stationary phase HPLC

Request: What measured atropisomerism by chiral stationary phase HPLC goes with Cc1ccccc1-n1c(Cn2nc(-c3cccc(O)c3)c3c(N)ncnc32)nc2cccc(C)c2c1=O [PIK294, reference compound] ?
Result: 1:1 mixture of enantiomeric atropisomers

###

Target: recombinant PI3 kinase α (Homo sapiens (Human))
Sequence (P42336 whole entry): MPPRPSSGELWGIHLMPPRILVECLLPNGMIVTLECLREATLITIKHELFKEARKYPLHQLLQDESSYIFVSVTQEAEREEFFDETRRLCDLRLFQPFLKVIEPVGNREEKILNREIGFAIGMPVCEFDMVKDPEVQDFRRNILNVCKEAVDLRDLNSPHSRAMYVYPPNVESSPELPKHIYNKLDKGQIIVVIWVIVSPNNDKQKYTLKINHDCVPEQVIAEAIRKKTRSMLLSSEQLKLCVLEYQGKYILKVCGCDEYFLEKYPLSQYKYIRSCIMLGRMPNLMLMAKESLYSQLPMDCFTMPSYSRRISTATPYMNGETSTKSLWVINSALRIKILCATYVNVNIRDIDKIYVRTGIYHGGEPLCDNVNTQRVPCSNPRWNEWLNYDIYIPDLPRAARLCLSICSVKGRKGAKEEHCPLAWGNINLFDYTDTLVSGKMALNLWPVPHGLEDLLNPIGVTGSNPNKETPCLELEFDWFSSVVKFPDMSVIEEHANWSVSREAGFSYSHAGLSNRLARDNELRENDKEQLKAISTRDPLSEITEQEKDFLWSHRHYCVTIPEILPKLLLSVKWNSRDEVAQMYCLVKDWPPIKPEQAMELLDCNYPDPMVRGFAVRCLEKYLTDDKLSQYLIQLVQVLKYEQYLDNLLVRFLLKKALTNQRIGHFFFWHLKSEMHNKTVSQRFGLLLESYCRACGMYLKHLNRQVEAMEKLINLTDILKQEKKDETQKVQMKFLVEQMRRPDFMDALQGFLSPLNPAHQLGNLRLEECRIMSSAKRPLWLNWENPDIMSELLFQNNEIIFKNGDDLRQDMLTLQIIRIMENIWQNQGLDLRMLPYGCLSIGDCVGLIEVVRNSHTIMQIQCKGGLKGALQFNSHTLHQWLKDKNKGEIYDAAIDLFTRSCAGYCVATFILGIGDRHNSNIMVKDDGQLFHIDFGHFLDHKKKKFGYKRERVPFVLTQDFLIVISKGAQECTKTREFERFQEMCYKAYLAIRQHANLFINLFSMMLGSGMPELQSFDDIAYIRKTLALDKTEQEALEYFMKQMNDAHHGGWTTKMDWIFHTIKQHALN
Sequence (P27986 whole entry partner): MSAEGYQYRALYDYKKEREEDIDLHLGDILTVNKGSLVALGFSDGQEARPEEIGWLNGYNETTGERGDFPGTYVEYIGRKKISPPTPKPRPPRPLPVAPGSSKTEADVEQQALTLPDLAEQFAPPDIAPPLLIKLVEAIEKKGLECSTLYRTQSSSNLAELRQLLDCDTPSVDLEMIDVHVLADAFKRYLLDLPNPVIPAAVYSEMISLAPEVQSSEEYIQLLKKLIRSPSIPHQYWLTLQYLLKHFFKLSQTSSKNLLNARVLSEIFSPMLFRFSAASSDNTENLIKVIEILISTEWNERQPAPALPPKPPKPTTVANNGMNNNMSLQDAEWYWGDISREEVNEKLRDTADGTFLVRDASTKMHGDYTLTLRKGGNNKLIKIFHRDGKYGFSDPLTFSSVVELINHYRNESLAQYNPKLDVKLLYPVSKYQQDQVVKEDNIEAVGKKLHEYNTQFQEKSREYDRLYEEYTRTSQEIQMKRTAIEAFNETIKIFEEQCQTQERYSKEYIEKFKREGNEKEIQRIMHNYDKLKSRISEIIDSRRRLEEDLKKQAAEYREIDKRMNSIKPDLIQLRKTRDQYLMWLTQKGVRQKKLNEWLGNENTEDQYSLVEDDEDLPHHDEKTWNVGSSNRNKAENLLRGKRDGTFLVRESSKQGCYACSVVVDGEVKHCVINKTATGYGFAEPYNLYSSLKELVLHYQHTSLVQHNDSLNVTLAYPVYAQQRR
Assay: Enzyme Inhibition Assay (HTRF PI3K enzyme assay, TR-FRET)
Type: biochemical
Details: activity range; read-out: PI3 Kinase Inhibition IC50 values at stated Isozyme α
reportedEndpoint: IC50

Observe how each entry below is paired with its result.
molecule	assayTarget	reportedEndpoint	result
C#Cc1cccc2nc(Cn3nc(-c4ccc(O)cc4)c4c(N)ncnc43)n(Cc3ccc(OC)cc3F)c(=O)c12	recombinant PI3 kinase α (Homo sapiens (Human))	IC50	50 to 1000 nM
Nc1ncnc2c1c(-c1cccc(O)c1)nn2Cc1nc2cccc(C#CCCCC(=O)N3CCC(N4CCOCC4)CC3)c2c(=O)n1Cc1ccccc1Cl	recombinant PI3 kinase α (Homo sapiens (Human))	IC50	50 to 1000 nM
COCC#Cc1cccc2nc(Cn3nc(-c4ccc(O)cc4)c4c(N)ncnc43)n(Cc3cccc(OC)c3)c(=O)c12	recombinant PI3 kinase α (Homo sapiens (Human))	IC50	50 to 1000 nM
COCCOCCOCC#Cc1cccc2nc(Cn3nc(-c4cccc(O)c4)c4c(N)ncnc43)n(Cc3ccccc3Cl)c(=O)c12	recombinant PI3 kinase α (Homo sapiens (Human))	IC50	> 1000 nM
CC(C)NC(=O)CCCC#Cc1cccc2nc(Cn3nc(-c4ccc(O)cc4)c4c(N)ncnc43)n(Cc3ccccc3Cl)c(=O)c12	recombinant PI3 kinase α (Homo sapiens (Human))	IC50	< 50 nM

Request: For recombinant PI3 kinase α (Homo sapiens (Human)), provide IC50 of "N#Cc1cccc(Cn2c(Cn3nc(-c4cccc(O)c4)c4c(N)ncnc43)nc3cccc(C#CCOCCOCCO)c3c2=O)c1" please.
Result: 50 to 1000 nM

Request: For recombinant PI3 kinase α (Homo sapiens (Human)), provide IC50 of "C#Cc1cccc2nc(Cn3nc(-c4cccc(O)c4)c4c(N)ncnc43)n(Cc3cccc(S(C)(=O)=O)c3)c(=O)c12" please.
Result: 50 to 1000 nM

Request: For recombinant PI3 kinase α (Homo sapiens (Human)), provide IC50 of "Nc1ncnc2c1c(-c1ccc(O)cc1)nn2Cc1nc2cccc(C#CCCCC(=O)N3CCOCC3)c2c(=O)n1Cc1ccccc1Cl" please.
Result: < 50 nM

Request: For recombinant PI3 kinase α (Homo sapiens (Human)), provide IC50 of "C#Cc1cccc2nc(Cn3nc(-c4ccc(O)cc4)c4c(N)ncnc43)n(Cc3cccc(C(F)(F)F)c3)c(=O)c12" please.
Result: 50 to 1000 nM

Request: For recombinant PI3 kinase α (Homo sapiens (Human)), provide IC50 of CN(C)C1CCN(C(=O)CCCC#Cc2cccc3nc(Cn4nc(-c5ccc(O)cc5)c5c(N)ncnc54)n(Cc4ccccc4Cl)c(=O)c23)C1 (stereo not drawn) please.
Result: 50 to 1000 nM

Request: For recombinant PI3 kinase α (Homo sapiens (Human)), provide IC50 of "Nc1ncnc2c1c(-c1cccc(O)c1)nn2Cc1nc2cccc(C#CCCCC(=O)N3CCOCC3)c2c(=O)n1Cc1ccccc1Cl" please.
Result: < 50 nM

Request: For recombinant PI3 kinase α (Homo sapiens (Human)), provide IC50 of "C#Cc1cccc2nc(Cn3nc(-c4ccc(O)cc4)c4c(N)ncnc43)n(Cc3ccc(C#N)cc3)c(=O)c12" please.
Result: 50 to 1000 nM

Request: For recombinant PI3 kinase α (Homo sapiens (Human)), provide IC50 of "C#Cc1cccc2nc(Cn3nc(-c4cccc(O)c4)c4c(N)ncnc43)n(Cc3ccccc3F)c(=O)c12" please.
Result: 50 to 1000 nM
